FYI, the data here is from patent EP4671251A1.

# method description: Approximate solubility of the starting free base at room temperature
# Type: physicochemical
# experimental parameters: 2-MeTHF:MTBE (1:1) v:v, room temperature (about 25 °C)
recorded endpoint: solubility

>  <compound>
CO[C@H]1/C=C/O[C@@]2(C)Oc3c(C)c(O)c4c(c3C2=O)C2=NC3(CCN(CCn5c([N+](=O)[O-])cnc5C)CC3)NC2=C(NC(=O)/C(C)=C\C=C\[C@H](C)[C@H](O)[C@@H](C)[C@@H](O)[C@@H](C)[C@H](OC(C)=O)[C@@H]1C)C4=O [starting free base]

>  <recorded result>
> 42.4 mg/mL

$$$$

* * *

# method description: Kinetic solubility in water and four biological media at 37 °C
# Assay type: physicochemical
# experimental parameters: fessif, pH 5, FeSSIF (5.0), 24 h, about 10 mg/mL sample added, read-out: S: Solubility
Structures can show the parent of a compound that is named as a salt.

>  <compound>
CO[C@H]1/C=C/O[C@@]2(C)Oc3c(C)c(O)c4c(c3C2=O)C2=NC3(CCN(CCn5c([N+](=O)[O-])cnc5C)CC3)NC2=C(NC(=O)/C(C)=C\C=C\[C@H](C)[C@H](O)[C@@H](C)[C@@H](O)[C@@H](C)[C@H](OC(C)=O)[C@@H]1C)C4=O [Crystal form I of triphenylacetate salt]

>  <units text>
µg/mL

>  <solubility at 24 h>
140

$$$$

* * *

# method description: Approximate solubility of the starting free base at room temperature
# Type: physicochemical
# experimental parameters: IPA:H2O (3:1) v:v, room temperature (about 25 °C)
recorded endpoint: solubility

>  <compound>
CO[C@H]1/C=C/O[C@@]2(C)Oc3c(C)c(O)c4c(c3C2=O)C2=NC3(CCN(CCn5c([N+](=O)[O-])cnc5C)CC3)NC2=C(NC(=O)/C(C)=C\C=C\[C@H](C)[C@H](O)[C@@H](C)[C@@H](O)[C@@H](C)[C@H](OC(C)=O)[C@@H]1C)C4=O [starting free base]

>  <recorded endpoint>
solubility

>  <recorded result>
> 41.2 mg/mL

$$$$

* * *

# method description: Approximate solubility of the starting free base at room temperature
# Assay type: physicochemical
# experimental parameters: IPA:H2O (9:1) v:v, room temperature (about 25 °C)

>  <compound>
CO[C@H]1/C=C/O[C@@]2(C)Oc3c(C)c(O)c4c(c3C2=O)C2=NC3(CCN(CCn5c([N+](=O)[O-])cnc5C)CC3)NC2=C(NC(=O)/C(C)=C\C=C\[C@H](C)[C@H](O)[C@@H](C)[C@@H](O)[C@@H](C)[C@H](OC(C)=O)[C@@H]1C)C4=O [starting free base]

>  <solubility>
> 41.4 mg/mL

$$$$

* * *

# method description: Approximate solubility of the starting free base at room temperature
# Type: physicochemical
# experimental parameters: EtOAc, room temperature (about 25 °C)

>  <compound>
CO[C@H]1/C=C/O[C@@]2(C)Oc3c(C)c(O)c4c(c3C2=O)C2=NC3(CCN(CCn5c([N+](=O)[O-])cnc5C)CC3)NC2=C(NC(=O)/C(C)=C\C=C\[C@H](C)[C@H](O)[C@@H](C)[C@@H](O)[C@@H](C)[C@H](OC(C)=O)[C@@H]1C)C4=O [starting free base]

>  <solubility>
> 40.8 mg/mL

$$$$

* * *

# method description: Approximate solubility of the starting free base at room temperature
# Assay type: physicochemical
# experimental parameters: Toluene:MTBE (1:1) v:v, room temperature (about 25 °C)
recorded endpoint: solubility

>  <compound>
CO[C@H]1/C=C/O[C@@]2(C)Oc3c(C)c(O)c4c(c3C2=O)C2=NC3(CCN(CCn5c([N+](=O)[O-])cnc5C)CC3)NC2=C(NC(=O)/C(C)=C\C=C\[C@H](C)[C@H](O)[C@@H](C)[C@@H](O)[C@@H](C)[C@H](OC(C)=O)[C@@H]1C)C4=O [starting free base]

>  <recorded result>
> 42.4 mg/mL

$$$$

* * *

# method description: Approximate solubility of the starting free base at room temperature
# Format: physicochemical
# experimental parameters: IPA:H2O (5:1) v:v, room temperature (about 25 °C)

>  <compound>
CO[C@H]1/C=C/O[C@@]2(C)Oc3c(C)c(O)c4c(c3C2=O)C2=NC3(CCN(CCn5c([N+](=O)[O-])cnc5C)CC3)NC2=C(NC(=O)/C(C)=C\C=C\[C@H](C)[C@H](O)[C@@H](C)[C@@H](O)[C@@H](C)[C@H](OC(C)=O)[C@@H]1C)C4=O [starting free base]

>  <solubility>
> 41.2 mg/mL

$$$$

* * *

# method description: Kinetic solubility in water and four biological media at 37 °C
# Assay type: physicochemical
# experimental parameters: fassgf, pH 1.6, FaSSGF (1.6), 24 h, about 10 mg/mL sample added, read-out: S: Solubility
Counter-ions that a name gives are not always drawn.

>  <compound>
CO[C@H]1/C=C/O[C@@]2(C)Oc3c(C)c(O)c4c(c3C2=O)C2=NC3(CCN(CCn5c([N+](=O)[O-])cnc5C)CC3)NC2=C(NC(=O)/C(C)=C\C=C\[C@H](C)[C@H](O)[C@@H](C)[C@@H](O)[C@@H](C)[C@H](OC(C)=O)[C@@H]1C)C4=O [Crystal form I of triphenylacetate salt]

>  <solubility at 24 h>
~1600 µg/mL

$$$$

* * *

# method description: Kinetic solubility in water and four biological media at 37 °C
# Type: physicochemical
# experimental parameters: fassgf, pH 1.6, FaSSGF (1.6), 4 h, about 10 mg/mL sample added, read-out: S: Solubility
Where a name gives a salt, the structure may show the parent alone.

>  <compound>
CO[C@H]1/C=C/O[C@@]2(C)Oc3c(C)c(O)c4c(c3C2=O)C2=NC3(CCN(CCn5c([N+](=O)[O-])cnc5C)CC3)NC2=C(NC(=O)/C(C)=C\C=C\[C@H](C)[C@H](O)[C@@H](C)[C@@H](O)[C@@H](C)[C@H](OC(C)=O)[C@@H]1C)C4=O [Crystal form I of triphenylacetate salt]

>  <units text>
µg/mL

>  <solubility at 4 h>
1600

$$$$

* * *

# method description: Kinetic solubility in water and four biological media at 37 °C
# Type: physicochemical
# experimental parameters: fessgf, pH 5, FeSSGF (5.0), 4 h, about 10 mg/mL sample added, read-out: S: Solubility
Where a name gives a salt, the structure may show the parent alone.

>  <molecule>
CO[C@H]1/C=C/O[C@@]2(C)Oc3c(C)c(O)c4c(c3C2=O)C2=NC3(CCN(CCn5c([N+](=O)[O-])cnc5C)CC3)NC2=C(NC(=O)/C(C)=C\C=C\[C@H](C)[C@H](O)[C@@H](C)[C@@H](O)[C@@H](C)[C@H](OC(C)=O)[C@@H]1C)C4=O [Crystal form I of triphenylacetate salt]

>  <units text>
µg/mL

>  <solubility at 4 h>
180

$$$$

* * *

# method description: Approximate solubility of the starting free base at room temperature
# Format: physicochemical
# experimental parameters: IPA:n-Heptane (1:1) v:v, room temperature (about 25 °C)
recorded endpoint: solubility

>  <molecule>
CO[C@H]1/C=C/O[C@@]2(C)Oc3c(C)c(O)c4c(c3C2=O)C2=NC3(CCN(CCn5c([N+](=O)[O-])cnc5C)CC3)NC2=C(NC(=O)/C(C)=C\C=C\[C@H](C)[C@H](O)[C@@H](C)[C@@H](O)[C@@H](C)[C@H](OC(C)=O)[C@@H]1C)C4=O [starting free base]

>  <recorded result>
20.7 to 41.4 mg/mL

$$$$

* * *

# method description: Approximate solubility of the starting free base at room temperature
# Format: physicochemical
# experimental parameters: MTBE, room temperature (about 25 °C)
# Protocol: The approximate solubility of the starting free base of the exemplary compound of formula (II) in 5 single solvents and 9 mixed solvents at room temperature (about 25 °C) was also tested. Table 1. Approximate solubility (mg/mL) of the starting free base at room temperature

>  <compound>
CO[C@H]1/C=C/O[C@@]2(C)Oc3c(C)c(O)c4c(c3C2=O)C2=NC3(CCN(CCn5c([N+](=O)[O-])cnc5C)CC3)NC2=C(NC(=O)/C(C)=C\C=C\[C@H](C)[C@H](O)[C@@H](C)[C@@H](O)[C@@H](C)[C@H](OC(C)=O)[C@@H]1C)C4=O [starting free base]

>  <solubility>
6.7 to 20.1 mg/mL

$$$$

* * *

# method description: Kinetic solubility in water and four biological media at 37 °C
# Format: physicochemical
# experimental parameters: fessif, pH 5, FeSSIF (5.0), 1 h, about 10 mg/mL sample added, read-out: S: Solubility
Counter-ions that a name gives are not always drawn.

>  <molecule>
CO[C@H]1/C=C/O[C@@]2(C)Oc3c(C)c(O)c4c(c3C2=O)C2=NC3(CCN(CCn5c([N+](=O)[O-])cnc5C)CC3)NC2=C(NC(=O)/C(C)=C\C=C\[C@H](C)[C@H](O)[C@@H](C)[C@@H](O)[C@@H](C)[C@H](OC(C)=O)[C@@H]1C)C4=O [Crystal form I of triphenylacetate salt]

>  <solubility at 1 h>
120 µg/mL

$$$$
